Hey, just so you know, these numbers are from patent US20170050957A1.

- Test system: Wheat and Barley and test plant species
- Assay Info: Post-emergent Test III, herbicidal activity in wheat and barley (Table 17; visual injury, GR20/GR50/GR80/GR90)
- Format: in vivo
- Measurement Context: MATCH; 35 g ai/ha; post-emergent; 21 d
Outcome Measure: Visual Growth Reduction (%) 21 Days After Application, MATCH

>>> df
                            chemical_smiles  obs_value
0  COC(=O)c1nc(-c2ccc3cc[nH]c3c2F)cc(N)c1Cl   G (0-29)
1  COC(=O)c1nc(-c2ccc(Cl)c3ccoc23)c(F)c(N)c1Cl   G (0-29)

* * *

Outcome Measure: melting point

Illustrative cases are given below, each with its answer.
>>> df
                            chemical_smiles      obs_value
0   COC(=O)c1nc(-c2ccc3ccsc3c2)c(C)c(N)c1Cl  143 to 146 °C
1  COC(=O)c1nc(-c2ccc3sccc3c2)c(Cl)c(N)c1Cl    50 to 56 °C

[ask] Please report the measured melting point for Nc1cc(-c2ccc3ccsc3c2)nc(C(=O)O)c1Cl
[reply] 176 to 177 °C

[ask] Report measured melting point; entry is COC(=O)c1nc(-c2ccc3cc[nH]c3c2F)c(F)c(N)c1OC
[reply] 203 to 205 °C

[ask] Fill in melting point for record COC(=O)c1nc(-c2ccc3cc[nH]c3c2)c(C)c(N)c1Cl
[reply] 231 to 234 °C
